// provenance: patent US20230148005A1

molecular target: Ba/F3 EGFR-Del19/T790M/C797S (Homo sapiens, UniProt P00533, T790M/C797S, cells depend on it, form not given); assay: Ba/F3 viability assay (CellTiter-Glo), DTC; type: cell-based; settings: anti-proliferation, read-out: BaF3 DTC IC50
Sequence (P00533 with tags, fused parts or gaps DEL746-750/T790M/C797S, form open): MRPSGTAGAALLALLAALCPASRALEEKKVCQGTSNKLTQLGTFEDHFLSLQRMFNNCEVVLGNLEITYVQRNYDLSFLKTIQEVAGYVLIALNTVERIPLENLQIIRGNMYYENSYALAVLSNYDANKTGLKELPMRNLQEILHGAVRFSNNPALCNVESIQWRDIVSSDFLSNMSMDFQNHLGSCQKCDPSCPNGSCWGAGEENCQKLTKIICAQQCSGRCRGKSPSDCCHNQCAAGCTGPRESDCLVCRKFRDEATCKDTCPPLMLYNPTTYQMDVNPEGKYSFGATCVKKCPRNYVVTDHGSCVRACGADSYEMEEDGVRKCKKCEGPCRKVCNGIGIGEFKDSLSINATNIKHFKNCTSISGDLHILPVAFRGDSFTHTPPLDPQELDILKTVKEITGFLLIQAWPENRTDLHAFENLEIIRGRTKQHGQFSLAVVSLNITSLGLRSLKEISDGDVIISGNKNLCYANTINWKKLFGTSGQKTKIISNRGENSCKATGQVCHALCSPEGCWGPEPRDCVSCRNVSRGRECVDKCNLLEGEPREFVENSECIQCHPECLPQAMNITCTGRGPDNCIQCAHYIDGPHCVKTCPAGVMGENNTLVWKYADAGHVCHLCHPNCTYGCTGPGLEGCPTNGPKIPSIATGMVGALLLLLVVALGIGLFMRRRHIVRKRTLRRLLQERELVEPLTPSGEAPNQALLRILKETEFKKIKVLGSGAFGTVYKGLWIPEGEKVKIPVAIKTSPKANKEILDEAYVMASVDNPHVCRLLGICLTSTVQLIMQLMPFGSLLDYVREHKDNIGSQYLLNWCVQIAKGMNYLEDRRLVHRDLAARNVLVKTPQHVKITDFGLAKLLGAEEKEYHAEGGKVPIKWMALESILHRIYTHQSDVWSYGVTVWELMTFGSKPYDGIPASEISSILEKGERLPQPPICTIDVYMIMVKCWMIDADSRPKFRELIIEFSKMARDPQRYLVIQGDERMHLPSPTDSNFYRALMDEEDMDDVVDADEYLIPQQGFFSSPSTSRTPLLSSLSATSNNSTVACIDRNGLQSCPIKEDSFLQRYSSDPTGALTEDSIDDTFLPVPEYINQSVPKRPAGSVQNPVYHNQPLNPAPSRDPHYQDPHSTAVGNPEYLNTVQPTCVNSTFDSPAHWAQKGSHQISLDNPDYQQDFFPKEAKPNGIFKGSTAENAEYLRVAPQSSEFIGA
Measured metric: GI50

Here's what some known entries look like.
CCN1CCC(Oc2cc(F)cc(-c3nn4c5cc(ncc35)Nc3ccnc(n3)-c3cnn(C)c3OCC[C@@H]4C)c2)CC1 ... 10 to 100 nM
C[C@H]1CCOc2c(cnn2C)-c2nccc(n2)Nc2cc3c(cn2)c(-c2cccc(CN4CCN(C)CC4)c2)nn31 ... 10 to 100 nM
C[C@H]1CCOc2c(cnn2C)-c2nccc(n2)Nc2cc3c(cn2)c(-c2ncc(CN4CCOCC4)s2)nn31 ... 10 to 100 nM
C[C@H]1CCOc2c(cnn2C)-c2nccc(n2)Nc2cc3c(cn2)c(-c2cnc(CN4CCN(C)CC4)s2)nn31 ... 10 to 100 nM

## Input # lookup: GI50 of C[C@H]1CCOc2c(cnn2C)-c2nccc(n2)Nc2cc3c(cn2)c(N2CCOCC2)nn31
## Output 10 to 100 nM

## Input # lookup: GI50 of CCN(CC)CCN(C)c1cc(F)cc(-c2nn3c4cc(ncc24)Nc2ccnc(n2)-c2cnn(C)c2OCC[C@@H]3C)c1
## Output 10 to 100 nM

## Input # lookup: GI50 of CCN(CC)Cc1ccc(-c2nn3c4cc(ncc24)Nc2ccnc(n2)-c2cnn(C)c2OCC[C@@H]3C)n1C
## Output < 10 nM
